These entries and their values trace back to patent US20250270328A1.

Property: Kd; scope: individual binders
# tested system: T1, human KLRB1 protein extracellular domain (ECD) (human, UniProt Q12918 67-225)
# T1 construct: range 67-225; The ELISA and SPR text says only 'human KLRB1 ECD'; also called human KLRB1 ECD; CD161
# T1 sequence (looked up): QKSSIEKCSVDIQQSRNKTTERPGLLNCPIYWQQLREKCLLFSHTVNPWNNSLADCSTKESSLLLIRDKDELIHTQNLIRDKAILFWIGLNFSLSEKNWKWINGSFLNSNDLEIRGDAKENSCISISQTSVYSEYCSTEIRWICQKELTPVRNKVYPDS
# method description: SPR, human KLRB1 ECD; format not stated
Number in nM, nothing else.

Answered cases to consult:
binder	endpoint result
10A3D6C109V-chimeric (antibody, human IgG1, V domains shown, Chimeric mutated variant; the name hIgG1k indicates human IgG1 kappa constant regions; also called 10A3D6C109VhIgG1k) VH: EVQLQQSGPELVKPGASMKISCKASGYSFTGYTMNWVKQSHGKNLEWIGLINPNTGGTYYNQKFKDKATLTVDKSSSTAYMELLSLTSEDSAVYYCARLGDNYRGYFDVWGQGTTLTVSS VL: DIVMTQSHKFMSTSVGDRVNITCKASQDVGTAVVWYQQTPGQSPKVLIDWASIRHTGVPDRFTGSGSGTDFTLTISSVQSEDLADYFCQQYSTYLYTFGGGTKLEIK	0.0436
10A3D6hum1.5 (antibody, V domains shown, Humanized antibody) VH: QVQLVQSGAEVKKPGASVKVSCKASGYSFTGYTMNWVRQAPGQGLEWMGLINPNTGGTYYNQKFKDRVTMTRDTSISTAYMELSRLRSDDTAVYYCARLGDNYRGYFDSWGQGTTVTVSS VL: EIVMTQSPATLSVSPGERATLSCKASQDVGTAVVWYQQKPGQAPRLLIDWASIRHTGIPARFSGSGSGTEFTLTISSLQSEDFAVYYCQQYSTYLYTFGGGTKVEIK	0.111

Briefly, Kd measured for 10A3D6C109Chum5.4 (antibody, V domains shown, Humanized variant of 10A3D6 made by CDR grafting) VH: QVQLVQSGAEVKKPGASVKVSCKASGYSFTGYTMNWVRQAPGQNLEWMGLINPNTGGTYYNQKFKDRVTLTVDTSISTAYMELSRLRSDDTVVYYCARLGDNYRGYFDCWGQGTLVTVSS VL: DIQLTQSPSFLSASVGDRVTITCKASQDVGTAVVWYQQTPGKAPKLLIDWASIRHTGVPDRFSGSGSGTEFTLTISSLQPEDFADYFCQQYSTYLYTFGGGTKLEIK : 0.143
